- ASSAYED TARGET: Sa-ClpP (Staphylococcus aureus)
- Construct: made in house; host or cells: E. coli BL21(DE3)
- Sequence (Q2G036 1-195): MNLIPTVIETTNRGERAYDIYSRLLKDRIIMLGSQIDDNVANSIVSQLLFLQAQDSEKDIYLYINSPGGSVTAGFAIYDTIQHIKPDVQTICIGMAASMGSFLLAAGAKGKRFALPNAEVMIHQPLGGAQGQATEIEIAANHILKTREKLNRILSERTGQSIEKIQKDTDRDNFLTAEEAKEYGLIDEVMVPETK
- EXPERIMENTAL PROTOCOL: ADEP displacement fluorescence polarization assay (FP probe ADEP 2591)
- Type: binding
- From the text: A fluorescence polarization (FP) assay was used to determine the activity of the disclosed compounds in displacing an ADEP analogue from ClpP. […] Polarization was monitored using an EnVision Multilabel reader (Perkin-Elmer, Waltham, Mass.) by exciting the FP probe at 530±25 nm, and monitoring fluorescence intensity of both parallel and perpendicular polarized light at 579±25 nm. Readout was in millipolarization units (mP). […]
*1 amine or outer side, *2 acyl side, *3 side chain or, on linkers, in order; H or OH if unused. Where a SMILES comes first, the peptide text is derived from it. Bridges are numbered along the chain shown (N, C = ends). [ ]: non-standard residue; d: D form. The star is where a group is joined. Piperazine(2S-CO,4-Me) = CN1CCN[C@H](C(=O)O)C1; Phe(3,5-F2) = N[C@@H](Cc1cc(F)cc(F)c1)C(=O)O; Morpholine(3S-CO) = O=C(O)[C@@H]1COCCN1; NH(4-Cl-2-F-phenyl) = Fc1cc(Cl)ccc1N*; Pro(4R-Me) = C[C@H]1CN[C@H](C(=O)O)C1; Hyp = O=C(O)[C@@H]1C[C@@H](O)CN1; NH(4-Et-phenyl) = CCc1ccc(N*)cc1; NMeT = CN[C@H](C(=O)O)[C@@H](C)O; aThr = C[C@H](O)[C@H](N)C(=O)O; Pip = O=C(O)[C@@H]1CCCCN1; X8 = c1cc2c(cc1N*)CCO2; CO = O=C([*:1])[*:2]; X7 = CC/C=C/C(=O)*
Reported IC50 values are given for each entry in this list.
Write the figure, then the unit, nothing else.

Solved cases (4 shown):
COMPOUND | ASSAYED TARGET | IC50
C[C@@H]1C[C@H]2C(=O)O[C@@H](C)[C@H](NC(=O)[C@H](Cc3cc(F)cc(F)c3)NC(=O)Nc3ccc4c(c3)CCO4)C(=O)N3CCC[C@H]3C(=O)N3CCCC[C@H]3C(=O)N[C@@H](C)C(=O)N2C1 [Compound 305] ({X8-CO}-[Phe(3,5-F2)][aThr]P[Pip]A[Pro(4R-Me)]; ester 2-C) | Sa-ClpP (Staphylococcus aureus) | 7.65 µM
C[C@@H]1C[C@H]2C(=O)O[C@@H](C)[C@H](NC(=O)[C@H](Cc3cc(F)cc(F)c3)NC(=O)Nc3ccc(Cl)cc3F)C(=O)N3CCC[C@H]3C(=O)N3CCOC[C@H]3C(=O)N[C@@H](C)C(=O)N2C1 [Compound 314] ({NH(4-Cl-2-F-phenyl)-CO}-[Phe(3,5-F2)][aThr]P[Morpholine(3S-CO)]A[Pro(4R-Me)]; ester 2-C) | Sa-ClpP (Staphylococcus aureus) | 7.2 µM
CCc1ccc(NC(=O)N[C@@H](Cc2cc(F)cc(F)c2)C(=O)N[C@@H]2C(=O)N3C[C@H](O)C[C@H]3C(=O)N3CCOC[C@H]3C(=O)N[C@@H](C)C(=O)N3C[C@H](C)C[C@H]3C(=O)O[C@H]2C)cc1 [Compound 320] ({NH(4-Et-phenyl)-CO}-[Phe(3,5-F2)][aThr][Hyp][Morpholine(3S-CO)]A[Pro(4R-Me)]; ester 2-C) | Sa-ClpP (Staphylococcus aureus) | 7.48 µM
Cc1ccc(NC(=O)N[C@@H](Cc2cc(F)cc(F)c2)C(=O)N[C@H]2COC(=O)[C@@H]3C[C@@H](C)CN3C(=O)[C@H](C)NC(=O)C3CCCCN3C(=O)[C@@H]3C[C@@H](O)CN3C2=O)cc1 (stereo partly shown) [Compound 323] | Sa-ClpP (Staphylococcus aureus) | 9.18 µM

Prompt: What does the record list as IC50 for CC/C=C/C(=O)N[C@@H](Cc1cc(F)cc(F)c1)C(=O)N[C@@H]1C(=O)N2C[C@H](O)C[C@H]2C(=O)N2CCCC[C@H]2C(=O)N[C@@H](C)C(=O)N2C[C@H](C)C[C@H]2C(=O)O[C@H]1C [Compound 300] (X7-[Phe(3,5-F2)][aThr][Hyp][Pip]A[Pro(4R-Me)]; ester 2-C) ?
Response: 5.94 µM

Prompt: Entry to check: CCc1ccc(NC(=O)N[C@@H](Cc2cc(F)cc(F)c2)C(=O)N[C@@H]2C(=O)N3CCC[C@H]3C(=O)N(C)[C@@H]([C@@H](C)O)C(=O)N[C@@H](C)C(=O)N3C[C@H](C)C[C@H]3C(=O)O[C@H]2C)cc1 [Compound 42] ({NH(4-Et-phenyl)-CO}-[Phe(3,5-F2)][aThr]P[NMeT]A[Pro(4R-Me)]; ester 2-C)
Response: 7.12 µM

Prompt: Entry to check: C[C@@H]1C[C@H]2C(=O)OC[C@H](NC(=O)[C@H](Cc3cc(F)cc(F)c3)NC(=O)Nc3ccc(Cl)cc3F)C(=O)N3CCC[C@H]3C(=O)N3CCN(C)C[C@H]3C(=O)N[C@@H](C)C(=O)N2C1 [Compound 330] ({NH(4-Cl-2-F-phenyl)-CO}-[Phe(3,5-F2)]SP[Piperazine(2S-CO,4-Me)]A[Pro(4R-Me)]; ester 2-C)
Response: 3.74 µM
